molecular target: carboxylesterase 1 (CES1) (Homo sapiens, UniProt P23141); construct: purchased R & D Systems (Minneapolis, Minn.); assay: Hydrolysis of prodrugs by Carboxylesterase 1; type: in vitro ADME; conditions: 21 h; 100 μM compound, 37° C., pH 7.5
Sequence (P23141 18-567): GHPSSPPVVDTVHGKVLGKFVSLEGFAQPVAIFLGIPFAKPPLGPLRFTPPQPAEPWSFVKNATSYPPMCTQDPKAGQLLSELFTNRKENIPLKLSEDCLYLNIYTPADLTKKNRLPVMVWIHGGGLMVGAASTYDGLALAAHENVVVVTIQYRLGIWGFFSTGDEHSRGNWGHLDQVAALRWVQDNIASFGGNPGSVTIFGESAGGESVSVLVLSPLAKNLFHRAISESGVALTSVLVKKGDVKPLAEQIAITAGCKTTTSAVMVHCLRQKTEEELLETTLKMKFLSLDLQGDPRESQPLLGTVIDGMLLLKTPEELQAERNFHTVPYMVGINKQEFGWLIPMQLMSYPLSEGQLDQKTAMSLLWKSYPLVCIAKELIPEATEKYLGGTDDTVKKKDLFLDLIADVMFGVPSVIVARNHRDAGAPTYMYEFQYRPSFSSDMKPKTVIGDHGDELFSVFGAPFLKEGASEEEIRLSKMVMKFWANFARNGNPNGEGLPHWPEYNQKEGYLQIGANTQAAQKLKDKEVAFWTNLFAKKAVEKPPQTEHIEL
Parameter Measured: CES1 hydrolysis

# Compound, CES1 hydrolysis
rows = [
    ("CC(C)OC(=O)[C@H](C)N[P@](=O)(OC[C@H]1O[C@@H](n2ccc(=O)[nH]c2=O)[C@](C)(F)[C@@H]1O)Oc1ccccc1 (single isomer, unassigned) [GS-7977, reference compound]", "15%/21 h"),
    ("CC(C)OC(=O)[C@@H](C)NP(=O)(OC[C@H]1O[C@@H](n2ccc(=O)[nH]c2=O)[C@](C)(Cl)[C@@H]1O)Oc1ccccc1 (single isomer, unassigned; diastereomer 2) [Compound 40i Diastereomer 2]", "4.5% @"),
    ("CC(C)OC(=O)[C@@H](C)N[P@@](=O)(OC[C@H]1O[C@@H](n2ccc(=O)[nH]c2=O)[C@](C)(F)[C@@H]1O)Oc1ccccc1 [Compound (804a) Ia (RP isomer)]", "3 h; 26%"),
]

# context switch: different compound, same CES1 hydrolysis
Q. Consider the compound shown here: CC(C)OC(=O)[C@@H](C)NP(=O)(OC[C@H]1O[C@@H](n2ccc(=O)[nH]c2=O)[C@](C)(Cl)[C@@H]1O)Oc1ccccc1 (single isomer, unassigned) [Compound 40i Diastereomer 1] What is its recorded CES1 hydrolysis?
A. 3 h; 49%
